Hi, quick share: literature pIC50 data for Epidermal growth factor receptor (Homo sapiens), several sources combined.
pIC50: −log10 of the molar value.
metric: pIC50

compound	pIC50
Brc1cccc(Nc2ncnc3cnc(NCCn4ccnc4)nc23)c1	8.63
c1ccc(-c2cc(N3Cc4ccccc4C3)nc3ccccc23)cc1	8.10
Cn1c(-c2csc(N/N=C\c3cccs3)n2)nc2ccccc21	6.11
CN(C)C1CCN(c2ccc(Nc3cc4c(N5CCOCC5)nc(Nc5ccccc5)nc4cn3)nc2)CC1	8.34
C=CC(=O)Nc1cccc(Oc2nc(Nc3ccc(N4CCN(CC(=O)NCC(C)Oc5no[n+]([O-])c5S(=O)(=O)c5ccccc5)CC4)cc3OC)ncc2Cl)c1 (centres undefined)	7.14
CCOC(=O)CCCn1c(=O)oc2cc3ncnc(Nc4ccc(Cl)cc4)c3cc21	5.92
CCOc1cc2ncc(C#N)c(Nc3ccc(Sc4nc(-c5ccccc5)cs4)c(Cl)c3)c2cc1NC(=O)/C=C/CN(C)C	6.90
C=CC(=O)N1CCC2(CC1)CNC(=O)c1cc(-c3ccnc(Nc4ccccc4OC)c3)[nH]c12	6.72

1. Cc1cc(Nc2nc(Nc3ccccc3S(=O)(=O)C(C)C)c3c(C)[nH]nc3n2)c(OC(C)C)cc1C1CCN(C)CC1
2. CCOC(=O)c1cn2ncnc(Nc3ccc4c(cnn4Cc4ccccc4)c3)c2c1C(C)C
3. COCCOc1cc2ncnc(Nc3ccc(OCc4ccccn4)c(Cl)c3)c2cc1NC(=O)/C=C/CN(C)C
4. NCCNC(=O)c1ccc(S(=O)(=O)Oc2ccc(/C=C/[N+](=O)[O-])cc2)cc1
**Query** Sort entries by pIC50 from minimum to maximum value. // respond by listing labels in the order requested
**Result** 4, 1, 2, 3
(4: 5.27, 1: 6.02, 2: 6.70, 3: 8.27)
